Catalogue of selectivity ratio values
Experiment: Selectivity index, ratio of IC50 for cytotoxicity against human HDF cells to IC50 for anticancer activity against human SK-BR-3 cells
Assay type: toxicity, cell-based
Conditions: HDF cells versus SK-BR-3 cells, read-out: Ratio IC50
The answer should be a number; do not append a unit.

1) CO[C@H]1/C=C\C=C(/C)C(=O)NC2=CC(=O)C(NCc3cn(Cc4cccc(C#N)c4)nn3)=C(C[C@@H](C)C[C@H](OC)[C@H](O)[C@@H](C)/C=C(\C)[C@@H]1OC(N)=O)C2=O    1.65
2) CO[C@H]1/C=C\C=C(/C)C(=O)NC2=CC(=O)C(NCc3cn(Cc4ccc([N+](=O)[O-])cc4)nn3)=C(C[C@@H](C)C[C@H](OC)[C@H](O)[C@@H](C)/C=C(\C)[C@@H]1OC(N)=O)C2=O    1.05
3) C#CCNC1=C2C[C@@H](C)C[C@H](OC)[C@H](O)[C@@H](C)/C=C(\C)[C@H](OC(N)=O)[C@@H](OC)/C=C\C=C(/C)C(=O)NC(=CC1=O)C2=O    1.84
4) CO[C@H]1/C=C\C=C(/C)C(=O)NC2=CC(=O)C(NCc3cn(CCN4C(=O)c5ccccc5C4=O)nn3)=C(C[C@@H](C)C[C@H](OC)[C@H](O)[C@@H](C)/C=C(\C)[C@@H]1OC(N)=O)C2=O    1.61

Continue with the molecule presented below.
query: What value of selectivity ratio has been reported for the following molecule? CO[C@H]1/C=C\C=C(/C)C(=O)NC2=CC(=O)C(NCc3cn([C@@H]4O[C@H](CO)[C@@H](O)[C@H](O)[C@H]4NC(C)=O)nn3)=C(C[C@@H](C)C[C@H](OC)[C@H](O)[C@@H](C)/C=C(\C)[C@@H]1OC(N)=O)C2=O
result: 1.85

Source listed as ChEMBL document CHEMBL5370558.
